target: T1, HLA-A*0201 (human); experiment: iTopia net score;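 also: combined score from peptide binding, ED₅₀ and half-life of peptide complexes with plate-bound HLA-A2 molecules, computed by a proprietary formula in iTopia software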
T1 construct: also called HLA-A2.1; HLA A2.1
Reported iScore values for the following binders.
ENDPOINT_NAME: iScore

>>> reported_result("FVYDHVFAE [cdr2 171-179 FVYDHVFAE]")
0.282
>>> reported_result("VTMEEEYGL [cdr2 217-225 VTMEEEYGL]")
0.528
>>> reported_result("LGATGAYRA [cdr2 237-245 LGATGAYRA]")
0.13
>>> reported_result("LKSSGQGRR [cdr2 136-144 LKSSGQGRR]")
0.176
>>> reported_result("TILSSLAGS (Position printed as 313-221) [cdr2 313-221 TILSSLAGS]")
0.238
>>> reported_result("TMEEEYGLV [cdr2 218-226 TMEEEYGLV]")
0.166
>>> reported_result("LVLKENSEL [cdr2 225-233 LVLKENSEL]")
0.119
>>> reported_result("ELYDLRQHF [cdr2 163-171 ELYDLRQHF]")
0.132
>>> reported_result("KILSLTETI [cdr2 111-119 KILSLTETI]")
0.512
>>> reported_result("SLSHKAVQT [cdr2 373-381 SLSHKAVQT]")
0.129
>>> reported_result("HLQSQVEEL [cdr2 128-136 HLQSQVEEL]")
0.323
>>> reported_result("LLEEMFLTV [cdr2 290-298 LLEEMFLTV]")
0.815
>>> reported_result("YLTKQVELL [cdr2 65-73 YLTKQVELL]")
0.645
>>> reported_result("LSLTETIEC [cdr2 113-121 LSLTETIEC]")
0.187
>>> reported_result("SLLEEMFLT [cdr2 289-297 SLLEEMFLT]")
0.803
>>> reported_result("AAAKDLTGV [cdr2 384-392 AAAKDLTGV]")
0.469
>>> reported_result("LVPDSLYVP [cdr2 274-282 LVPDSLYVP]")
0.154
>>> reported_result("LYDLRQHFV [cdr2 164-172 LYDLRQHFV]")
0.199
>>> reported_result("ASGWELASV [cdr2 400-408 ASGWELASV]")
0.187
>>> reported_result("SQVEELKSS [cdr2 131-139 SQVEELKSS]")
0.154
>>> reported_result("ALKVKYEEL [cdr2 355-363 ALKVKYEEL]")
0.107
>>> reported_result("QLAAELGKT [cdr2 29-37 QLAAELGKT]")
0.15
>>> reported_result("MLQAQLSLE [cdr2 204-212 MLQAQLSLE]")
0.235
>>> reported_result("TMLQAQLSL [cdr2 203-211 TMLQAQLSL]")
0.811
